The entries below come with measured Fibrin Selectivity (LOG10) values attached.
Test system: fibrin-induced microglia activation
TEST_NAME: Image-based assay of fibrin-induced microglia activation (HTS and dose response)
Format: cell-based, rat
Where a name gives a salt, the structure may show the parent alone.
Field format: numeric only.

// below: answered compounds
| COMPOUND | RECORDED_VALUE |
| --- | --- |
| CC(NCCc1ccc(O)cc1)C(O)c1ccc(O)cc1 (stereo not drawn) [Ritodrine hydrochloride, reference compound] | 1.51 |
| Cc1ccc(S(=O)(=O)NC(=O)NN2CCCCCC2)cc1 [Tolazamide, reference compound] | 0.23 |
| CC(=O)OCC(=O)[C@@]12N=C(C)O[C@@H]1C[C@H]1[C@@H]3CCC4=CC(=O)C=C[C@]4(C)[C@H]3[C@@H](O)C[C@@]12C [Deflazacort, reference compound] | 1.63 |

Q) What value of measured Fibrin Selectivity (LOG10) is listed for CC(=O)OCC(=O)[C@@]1(O)[C@H](OC(C)=O)C[C@H]2[C@@H]3CCC4=CC(=O)C=C[C@]4(C)[C@@]3(F)[C@@H](O)C[C@@]21C [Triamcinolone diacetate, reference compound] ?
A) 1.23

Q) What value of measured Fibrin Selectivity (LOG10) is listed for COc1ccccc1N1CCN(CC(O)COc2cccc3ccccc23)CC1 (stereo not drawn) [Naftopidil dihydrochloride, reference compound] ?
A) 0.45

Q) What value of measured Fibrin Selectivity (LOG10) is listed for O=P(O)(O)C(O)(Cn1ccnc1)P(=O)(O)O [Zoledronic acid, reference compound] ?
A) 0.55

* * *

Tested on: primary rat microglia
TEST_NAME: Cell toxicity (dead cells, size <150 μm2) in coated fibrin (cFib) assay;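 also: share of dead cells sized under 150 µm2 at 10 µM in fibrin-stimulated microglia HTS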
CONDITION_LABEL: primary microglia HTS, fibrin stimulation; decreased size (<150 μm^2) as marker of toxicity
Counter-ions that a name gives are not always drawn.
RECORDED_ENDPOINT: Fibrin % cell toxicity
Kindly write the number and append the unit.

| MOLECULE | Fibrin % cell toxicity |
| --- | --- |
| CCCCC(=O)O[C@]1(C(=O)CO)CC[C@H]2[C@@H]3CCC4=CC(=O)CC[C@]4(C)[C@H]3[C@@H](O)C[C@@]21C [Hydrocortisone valerate, reference compound] | 1% |
| C[N+]1(C)CCCC(OC(=O)C(O)(c2ccccc2)c2ccccc2)C1 (stereo not drawn) [Mepenzolate] | 1% |
| CC1=CC(=O)c2ccccc2C1=O | 87% |
| CO[C@H]1C[C@H](O[C@H]2[C@H](C)[C@@H](O[C@@H]3O[C@H](C)C[C@H](N(C)C)[C@H]3O)[C@@H](C)C[C@@]3(CO3)C(=O)[C@H](C)[C@@H](O)[C@@H](C)[C@@H](C)OC(=O)[C@@H]2C)O[C@@H](C)[C@@H]1O [Oleandomycin Phosphate] | 1% |
| NC[C@H](O)c1ccc(O)c(O)c1 [Norepinephrine] | 1% |
| CCN(CC)CCOc1ccc2c(c1)C(=O)c1cc(OCCN(CC)CC)ccc1-2 | 0% |

Q) What value of measured Fibrin % cell toxicity is listed for C[C@]12CCC(=O)C=C1CC[C@@H]1[C@@H]2CC[C@@]2(C)[C@H]1CC[C@]2(C)O ?
A) 1%

Q) What value of measured Fibrin % cell toxicity is listed for O=C(O)c1cc(/N=N/c2ccc(O)c(C(=O)O)c2)ccc1O ?
A) 1%

Q) What value of measured Fibrin % cell toxicity is listed for CO/N=C1\C[C@]2(C[C@@H]3C[C@@H](C/C=C(\C)C[C@@H](C)/C=C/C=C4\CO[C@@H]5[C@H](O)C(C)=C[C@@H](C(=O)O3)[C@]45O)O2)O[C@H](/C(C)=C/C(C)C)[C@H]1C ?
A) 0%

Q) What value of measured Fibrin % cell toxicity is listed for CC(=O)[C@H]1CC[C@H]2[C@@H]3C[C@H](C)C4=CC(=O)CC[C@]4(C)[C@H]3[C@@H](O)C[C@]12C ?
A) 4%

Q) What value of measured Fibrin % cell toxicity is listed for N=C(NCCCCCCNC(=N)NC(=N)Nc1ccc(Cl)cc1)NC(=N)Nc1ccc(Cl)cc1 ?
A) 1%

Q) What value of measured Fibrin % cell toxicity is listed for [H]/N=C(/NCCCCC)N/N=C/c1c[nH]c2ccc(OC)cc12 [Tegaserod maleate, reference compound] ?
A) 2%

Q) What value of measured Fibrin % cell toxicity is listed for COc1c(C)c2c(c(O)c1C/C=C(\C)CCC(=O)OCCN1CCOCC1)C(=O)OC2 [Mycophenolate mofetil, reference compound] ?
A) 2%

Q) What value of measured Fibrin % cell toxicity is listed for CN(C)CCCN1c2ccccc2Sc2ccccc21 ?
A) 1%

Q) What value of measured Fibrin % cell toxicity is listed for O=[N+]([O-])c1ccc(O)c2ncccc12 ?
A) 1%

* * *

Tested on: primary rat microglia
TEST_NAME: Cell toxicity (dead cells, size <150 μm2) in coated fibrin (cFib) assay;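 also: share of dead cells sized under 150 µm2 at 10 µM in fibrin-stimulated microglia HTS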
CONDITION_LABEL: primary microglia HTS, 10 μM, fibrin assay, cell size <150 μm^2 as marker of toxicity
Structures can show the parent of a compound that is named as a salt.
RECORDED_ENDPOINT: Fibrin % cell toxicity (%)
Write the value in % as a bare number.

// below: answered compounds
| COMPOUND | RECORDED_VALUE |
| --- | --- |
| CC(c1cc2ccccc2s1)N(O)C(N)=O (centres unmarked) [Zileuton] | 0 |
| OC[C@H]1O[C@H](O[C@]2(CCl)O[C@H](CCl)[C@@H](O)[C@@H]2O)[C@H](O)[C@@H](O)[C@H]1Cl [Sucralose] | 1 |
| C[C@H](Cn1cnc2c(N)ncnc21)OCP(=O)(O)O [Tenofovir] | 0 |
| NS(=O)(=O)Cc1noc2ccccc12 [Zonisamide] | 0 |

Q) Record lookup: for primary rat microglia, what Fibrin % cell toxicity belongs to CN1[C@@H]2CC[C@H]1C[C@@H](OC(=O)c1c[nH]c3ccccc13)C2 [Tropisetron] ?
A) 0

Q) Record lookup: for primary rat microglia, what Fibrin % cell toxicity belongs to CN(C)c1cc(NC(=O)CNC(C)(C)C)c(O)c2c1C[C@H]1C[C@H]3[C@H](N(C)C)C(O)=C(C(N)=O)C(=O)[C@@]3(O)C(O)=C1C2=O [Tigecycline] ?
A) 0

Q) Record lookup: for primary rat microglia, what Fibrin % cell toxicity belongs to CC(C)(C)NCC(O)c1cc(O)cc(O)c1 (centres unmarked) [Terbutaline] ?
A) 1

Q) Record lookup: for primary rat microglia, what Fibrin % cell toxicity belongs to CCN(CC)CCNC(=O)c1cc(S(C)(=O)=O)ccc1OC [Tiapride] ?
A) 0

Q) Record lookup: for primary rat microglia, what Fibrin % cell toxicity belongs to CS(=O)(=O)c1ccc([C@@H](O)[C@@H](CO)NC(=O)C(Cl)Cl)cc1 [Thiamphenicol] ?
A) 0

Q) Record lookup: for primary rat microglia, what Fibrin % cell toxicity belongs to C[C@H](CCC(=O)O)[C@H]1CC[C@H]2[C@@H]3[C@@H](O)C[C@@H]4C[C@H](O)CC[C@]4(C)[C@H]3CC[C@]12C [Ursodiol] ?
A) 0

Q) Record lookup: for primary rat microglia, what Fibrin % cell toxicity belongs to N#Cc1ccc2[nH]cc(CCCCN3CCN(c4ccc5oc(C(N)=O)cc5c4)CC3)c2c1 [Vilazodone] ?
A) 1

Q) Record lookup: for primary rat microglia, what Fibrin % cell toxicity belongs to Nc1ccc(S(=O)(=O)NC(=O)c2ccccc2)cc1 [Sulfabenzamide] ?
A) 1

Q) Record lookup: for primary rat microglia, what Fibrin % cell toxicity belongs to COc1cc2c3cc1Oc1cc(ccc1O)C[C@@H]1c4c(cc(OC)c(O)c4Oc4ccc(cc4)C[C@@H]3N(C)CC2)CC[N+]1(C)C [Tubocurarine] ?
A) 0

Q) Record lookup: for primary rat microglia, what Fibrin % cell toxicity belongs to N[C@@H](Cc1cc(I)c(Oc2cc(I)c(O)c(I)c2)c(I)c1)C(=O)O [Thyroxine, Levothyroxine] ?
A) 1

Q) Record lookup: for primary rat microglia, what Fibrin % cell toxicity belongs to COc1ncnc(NS(=O)(=O)c2ccc(N)cc2)c1OC [Sulfadoxine] ?
A) 1

Q) Record lookup: for primary rat microglia, what Fibrin % cell toxicity belongs to CCCCCC(C)N (centres unmarked) [Tuaminoheptane Sulfate] ?
A) 1

Q) Record lookup: for primary rat microglia, what Fibrin % cell toxicity belongs to Cc1cc(CC(=O)O)n(C)c1C(=O)c1ccc(Cl)cc1 [Zomepirac] ?
A) 1

* * *

The entries below come with measured LPS % inhibition values attached.
System: LPS-induced microglia activation
TEST_NAME: Image-based assay of LPS-induced microglia activation (HTS and dose response)
Type: cell-based, rat
CONDITION_LABEL: 10 µM
Where a name gives a salt, the structure may show the parent alone.
Write the value in % as a bare number.

// below: answered molecules
| MOLECULE | UNIT_SPEC | RECORDED_VALUE |
| --- | --- | --- |
| CN(C)CCCN1c2ccccc2Sc2ccc(Cl)cc21.Cl | % | 25 |
| CN(C)c1cnccn1.O=S(=O)(O)O [Ampyzine Sulfate] | % | 11 |
| C[N+](C)(C)CC(=O)O | % | 22 |

Q) What value of measured LPS % inhibition is listed for O=P1(N(CCCl)CCCl)NCCCO1 (stereo not drawn) ?
A) 12

Q) What value of measured LPS % inhibition is listed for CN[C@H](CC(C)C)C(=O)N[C@H]1C(=O)N[C@@H](CC(N)=O)C(=O)N[C@H]2C(=O)N[C@H]3C(=O)N[C@H](C(=O)N[C@H](C(=O)O)c4cc(O)cc(O)c4-c4cc3ccc4O)[C@H](O)c3ccc(c(Cl)c3)Oc3cc2cc(c3O[C@@H]2O[C@H](CO)[C@@H](O)[C@H](O)[C@H]2O[C@H]2C[C@](C)(N)[C@H](O)[C@H](C)O2)Oc2ccc(cc2Cl)[C@H]1O [Vancomycin Hydrochloride] ?
A) 9

Q) What value of measured LPS % inhibition is listed for O=c1ccc2ccccc2o1 ?
A) 13

Values were extracted from patent US20210330611A1.
